Target: UniProt:Q08499
Sequence (Q08499 other isoform, or with tags, fused parts or gaps): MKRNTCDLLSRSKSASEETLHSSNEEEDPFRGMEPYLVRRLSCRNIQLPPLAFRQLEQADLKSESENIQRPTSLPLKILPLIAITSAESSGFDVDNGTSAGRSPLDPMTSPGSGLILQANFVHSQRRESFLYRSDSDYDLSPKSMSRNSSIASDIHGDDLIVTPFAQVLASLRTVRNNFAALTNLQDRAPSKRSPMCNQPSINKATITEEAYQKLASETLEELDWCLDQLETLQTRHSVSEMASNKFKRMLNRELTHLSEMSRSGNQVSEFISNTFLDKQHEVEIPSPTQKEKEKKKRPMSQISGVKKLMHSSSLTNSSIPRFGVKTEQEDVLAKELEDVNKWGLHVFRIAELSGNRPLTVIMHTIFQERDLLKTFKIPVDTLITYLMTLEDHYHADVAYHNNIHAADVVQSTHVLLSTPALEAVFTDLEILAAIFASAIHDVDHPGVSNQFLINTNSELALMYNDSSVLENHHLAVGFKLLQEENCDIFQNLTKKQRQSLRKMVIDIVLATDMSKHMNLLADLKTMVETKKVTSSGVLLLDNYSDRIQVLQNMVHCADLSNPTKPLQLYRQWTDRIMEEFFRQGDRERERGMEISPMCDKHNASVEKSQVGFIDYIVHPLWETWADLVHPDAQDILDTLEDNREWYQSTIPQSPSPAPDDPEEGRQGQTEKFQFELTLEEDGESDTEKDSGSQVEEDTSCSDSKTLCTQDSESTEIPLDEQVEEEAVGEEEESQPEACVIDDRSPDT
Settings: read-out: PDE4D7 IC50; PDE4D7 without asterisk
pIC50: −log10 of the molar value. Where a name gives a salt, the structure may show the parent alone.
Observation type: pIC50

Here is how some molecules turned out for pIC50.
Molecule: OCCc1ccc(Nc2nc(C3CCCC3)nc3c2CCC3)cc1 [Example 217]
Result: < 6.00
--
Molecule: CCc1c(C)nc(-c2ccc(Cl)s2)nc1Nc1ccc(Cn2cc(Cl)cn2)cc1 [Example 304]
Result: < 6.00
--
Molecule: NC(=O)Cc1ccc(Nc2cc(-c3cccc(Cl)c3)nc3c2CCC3)nc1 [Example 94, hydrochloride]
Result: < 6.00
--
Molecule: O=C(O)Cc1ccc(Nc2nc(-c3cccc(Cl)c3)nc3c2CCC3)cc1 [Example 10]
Result: < 6.00
--
Molecule: NC(=O)Cc1ccc(Nc2cc(-c3ccc(F)c(Cl)c3)nc3c2CCC3)cc1 [Example 150, hydrochloride]
Result: < 6.00
--
Molecule: NC(=O)Cc1cccc(Nc2cc(-c3cccc(Cl)c3)nc3c2CCC3)c1 [Example 101, hydrochloride]
Result: < 6.00
--
Molecule: OCCc1ccc(Nc2cc(C(F)(F)F)nc(OC3CCCC3)n2)cc1 [Example 199]
Result: > 6.00
--
Molecule: O=S1(=O)CCCc2nc(-c3cccc(Cl)c3)nc(Nc3ccc(Cc4nn[nH]n4)cc3)c21 [Example 316]
Result: > 6.00
--
Molecule: OCCc1ccc(Nc2cc(-c3ccco3)nc3c2CCC3)cc1 [Example 239, hydrochloride]
Result: < 6.00
--
Molecule: CCc1nc(Nc2ccc(C(=O)O)cc2)nc(-c2ccc(Cl)s2)n1 [Example 30]
Result: > 6.00

For the molecule shown here, Clc1cccc(-c2nc3c(c(Nc4ccc(Cc5nn[nH]n5)cc4)n2)SCCC3)c1 [Example 313] , give the reported pIC50.
> 6.00

# input molecule: O=C(O)c1ccc(Nc2cc(-c3cccc(Cl)c3)nc3c2CCC3)cc1 [Example 5] ; wanted: its pIC50
< 6.00

So what's the measured pIC50 for this one? O=C(O)CCc1ccc(Nc2nc(-c3ccc(Cl)s3)nc3c2CCC3)cc1 [Example 15]
< 6.00
